target_under_test: Protein cereblon/Tyrosine-protein kinase BTK (Homo sapiens, UniProt Q06187+Q96SW2)
protocol: PROTAC activity at CRBN/BTK in human Ramos cells assessed as induction of BTK degradation at 100 nM incubated for 24 hrs by Western blot analysis relative to control
Format: cell-based
Sequence (Q06187 2-659 limits assumed): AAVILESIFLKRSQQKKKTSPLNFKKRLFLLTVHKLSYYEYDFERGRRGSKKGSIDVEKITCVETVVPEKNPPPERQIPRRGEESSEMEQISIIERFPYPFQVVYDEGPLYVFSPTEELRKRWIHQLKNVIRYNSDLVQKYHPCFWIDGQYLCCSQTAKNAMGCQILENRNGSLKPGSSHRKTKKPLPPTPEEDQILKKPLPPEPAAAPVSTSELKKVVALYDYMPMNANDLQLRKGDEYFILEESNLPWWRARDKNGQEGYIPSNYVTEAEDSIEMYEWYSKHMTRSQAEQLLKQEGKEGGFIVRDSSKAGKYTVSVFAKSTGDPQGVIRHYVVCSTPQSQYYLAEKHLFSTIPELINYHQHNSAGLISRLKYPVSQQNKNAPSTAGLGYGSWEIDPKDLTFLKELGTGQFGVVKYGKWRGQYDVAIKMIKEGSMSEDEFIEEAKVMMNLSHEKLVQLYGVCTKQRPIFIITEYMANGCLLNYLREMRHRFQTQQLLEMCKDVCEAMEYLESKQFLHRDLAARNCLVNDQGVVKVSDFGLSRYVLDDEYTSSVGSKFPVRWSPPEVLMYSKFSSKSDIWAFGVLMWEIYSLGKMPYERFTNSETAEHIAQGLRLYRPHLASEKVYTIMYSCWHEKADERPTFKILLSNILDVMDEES
Sequence (Q96SW2 whole entry partner): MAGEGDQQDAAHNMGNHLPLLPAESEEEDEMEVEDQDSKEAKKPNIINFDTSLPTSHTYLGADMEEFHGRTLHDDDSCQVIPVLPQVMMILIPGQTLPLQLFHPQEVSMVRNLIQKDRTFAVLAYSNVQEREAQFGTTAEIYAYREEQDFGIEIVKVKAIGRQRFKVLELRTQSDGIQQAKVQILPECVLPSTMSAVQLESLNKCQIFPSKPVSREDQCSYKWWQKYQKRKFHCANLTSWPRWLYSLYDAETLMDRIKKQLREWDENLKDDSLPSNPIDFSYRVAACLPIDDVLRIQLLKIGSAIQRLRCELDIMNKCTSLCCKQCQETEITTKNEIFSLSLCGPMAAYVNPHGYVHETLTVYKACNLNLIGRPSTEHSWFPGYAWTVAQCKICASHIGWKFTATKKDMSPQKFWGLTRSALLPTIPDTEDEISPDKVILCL
value_type: Activity

molecule: Nc1ncnc2c1c(-c1ccc(Oc3ccccc3)cc1)nn2C1CCN(C(=O)CN2CCC(CN3CCN(CC#Cc4ccc5c(c4)C(=O)N(C4CCC(=O)NC4=O)C5=O)CC3)CC2)CC1 (stereo unspecified)
target_under_test: Protein cereblon/Tyrosine-protein kinase BTK (Homo sapiens, UniProt Q06187+Q96SW2)
result: 33.6%
--
molecule: Nc1ncnc2c1c(-c1ccc(Oc3ccccc3)cc1)nn2C1CCN(C(=O)CCCN2CCN(C(=O)CCC(=O)Nc3ccc4c(c3)C(=O)N(C3CCC(=O)NC3=O)C4=O)CC2)CC1 (stereo unspecified)
target_under_test: Protein cereblon/Tyrosine-protein kinase BTK (Homo sapiens, UniProt Q06187+Q96SW2)
result: 41.8%
--
molecule: Nc1ncnc2c1c(-c1ccc(Oc3ccccc3)cc1)nn2C1CCN(C(=O)CN2CCN(CCOCCOCC(=O)Nc3ccc4c(c3)C(=O)N(C3CCC(=O)NC3=O)C4=O)CC2)CC1 (stereo unspecified)
target_under_test: Protein cereblon/Tyrosine-protein kinase BTK (Homo sapiens, UniProt Q06187+Q96SW2)
result: 38.9%
--
molecule: Nc1ncnc2c1c(-c1ccc(Oc3ccccc3)cc1)nn2C1CCN(C(=O)CN2CCN(CC3CN(c4cccc5c4C(=O)N(C4CCC(=O)NC4=O)C5=O)C3)CC2)CC1 (stereo unspecified)
target_under_test: Protein cereblon/Tyrosine-protein kinase BTK (Homo sapiens, UniProt Q06187+Q96SW2)
result: 67.5%
--
molecule: Nc1ncnc2c1c(-c1ccc(Oc3ccccc3)cc1)nn2C1CCN(C(=O)CN2CCC(N3CCN(CC#Cc4ccc5c(c4)C(=O)N(C4CCC(=O)NC4=O)C5=O)CC3)CC2)CC1 (stereo unspecified)
target_under_test: Protein cereblon/Tyrosine-protein kinase BTK (Homo sapiens, UniProt Q06187+Q96SW2)
result: 57.8%
--
molecule: Nc1ncnc2c1c(-c1ccc(Oc3ccccc3)cc1)nn2C1CCN(C(=O)c2ccc(N3CCN(c4ccc5c(c4)C(=O)N(C4CCC(=O)NC4=O)C5=O)CC3)nc2)CC1 (stereo unspecified)
target_under_test: Protein cereblon/Tyrosine-protein kinase BTK (Homo sapiens, UniProt Q06187+Q96SW2)
result: 71.7%

====

target_under_test: Protein cereblon/Tyrosine-protein kinase BTK (Homo sapiens, UniProt Q06187+Q96SW2)
protocol: PROTAC activity at CRBN/BTK in human Ramos cells assessed as induction of BTK degradation at 100 nM incubated for 24 hrs by Western blot analysis relative to control
Format: cell-based
If the reported Activity equals or exceeds 60%, assign yes. If not, assign no.

molecule: Nc1ncnc2c1c(-c1ccc(Oc3ccccc3)cc1)nn2C1CCN(C(=O)CCCN2CCN(CCOCC(=O)Nc3ccc4c(c3)C(=O)N(C3CCC(=O)NC3=O)C4=O)CC2)CC1 (stereo unspecified)
target_under_test: Protein cereblon/Tyrosine-protein kinase BTK (Homo sapiens, UniProt Q06187+Q96SW2)
assigned_label: no
//
molecule: Nc1ncnc2c1c(-c1ccc(Oc3ccccc3)cc1)nn2C1CCN(C(=O)CN2CCN(C(=O)CCCC(=O)Nc3ccc4c(c3)C(=O)N(C3CCC(=O)NC3=O)C4=O)CC2)CC1 (stereo unspecified)
target_under_test: Protein cereblon/Tyrosine-protein kinase BTK (Homo sapiens, UniProt Q06187+Q96SW2)
assigned_label: yes
//
molecule: Nc1ncnc2c1c(-c1ccc(Oc3ccccc3)cc1)nn2C1CCN(CCOCCOCC(=O)Nc2ccc3c(c2)C(=O)N(C2CCC(=O)NC2=O)C3=O)CC1 (stereo unspecified)
target_under_test: Protein cereblon/Tyrosine-protein kinase BTK (Homo sapiens, UniProt Q06187+Q96SW2)
assigned_label: yes
//
molecule: Nc1ncnc2c1c(-c1ccc(Oc3ccccc3)cc1)nn2C1CCN(C(=O)CN2CCN(CC3CCN(c4ccc5c(c4)C(=O)N(C4CCC(=O)NC4=O)C5=O)CC3)CC2)CC1 (stereo unspecified)
target_under_test: Protein cereblon/Tyrosine-protein kinase BTK (Homo sapiens, UniProt Q06187+Q96SW2)
assigned_label: yes

====

target_under_test: Protein cereblon/Tyrosine-protein kinase BTK (Homo sapiens, UniProt Q06187+Q96SW2)
protocol: PROTAC activity at CRBN/BTK in human MINO cells assessed as induction of BTK degradation incubated for 24 hrs by Western blot analysis
Format: cell-based
Sequence (Q06187 whole entry): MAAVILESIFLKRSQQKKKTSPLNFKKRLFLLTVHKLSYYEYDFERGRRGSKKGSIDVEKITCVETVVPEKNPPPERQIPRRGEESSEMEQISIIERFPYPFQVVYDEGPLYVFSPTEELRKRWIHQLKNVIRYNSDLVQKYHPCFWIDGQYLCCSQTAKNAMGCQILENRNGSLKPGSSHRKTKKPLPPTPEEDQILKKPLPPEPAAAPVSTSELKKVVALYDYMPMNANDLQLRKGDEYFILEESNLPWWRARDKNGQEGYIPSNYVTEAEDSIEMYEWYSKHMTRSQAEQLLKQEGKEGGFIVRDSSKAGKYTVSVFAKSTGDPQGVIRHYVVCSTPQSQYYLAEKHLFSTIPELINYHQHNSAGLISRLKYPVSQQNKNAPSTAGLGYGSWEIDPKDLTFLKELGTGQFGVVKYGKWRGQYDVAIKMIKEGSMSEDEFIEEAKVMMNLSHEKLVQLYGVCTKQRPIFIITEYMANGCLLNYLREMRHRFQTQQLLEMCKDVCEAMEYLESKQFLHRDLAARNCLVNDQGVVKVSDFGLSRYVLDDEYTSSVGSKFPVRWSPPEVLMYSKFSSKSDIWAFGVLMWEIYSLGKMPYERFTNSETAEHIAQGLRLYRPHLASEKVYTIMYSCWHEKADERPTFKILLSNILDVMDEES
Sequence (Q96SW2 whole entry): as the sequence (Q96SW2 whole entry partner) above

compound: Nc1ncnc2c1c(-c1ccc(Oc3ccccc3)cc1)nn2C1CCN(C(=O)CN2CCN(CC3CCN(c4cccc5c4C(=O)N(C4CCC(=O)NC4=O)C5=O)CC3)CC2)CC1 (centres undefined)
target_under_test: Protein cereblon/Tyrosine-protein kinase BTK (Homo sapiens, UniProt Q06187+Q96SW2)
EC50, nM: 10.3

compound: Nc1ncnc2c1c(-c1ccc(Oc3ccccc3)cc1)nn2C1CCN(C(=O)CN2CCN(CC3CN(c4cccc5c4C(=O)N(C4CCC(=O)NC4=O)C5=O)C3)CC2)CC1 (centres undefined)
target_under_test: Protein cereblon/Tyrosine-protein kinase BTK (Homo sapiens, UniProt Q06187+Q96SW2)
EC50, nM: 9.06

compound: Nc1ncnc2c1c(-c1ccc(Oc3ccccc3)cc1)nn2C1CCN(C(=O)CN2CCN(CC3CCN(c4ccc5c(c4)C(=O)N(C4CCC(=O)NC4=O)C5=O)CC3)CC2)CC1 (centres undefined)
target_under_test: Protein cereblon/Tyrosine-protein kinase BTK (Homo sapiens, UniProt Q06187+Q96SW2)
EC50, nM: 2.93

compound: Nc1ncnc2c1c(-c1ccc(Oc3ccccc3)cc1)nn2C1CCN(C(=O)CN2CCN(CC3CN(c4ccc5c(c4)C(=O)N(C4CCC(=O)NC4=O)C5=O)C3)CC2)CC1 (centres undefined)
target_under_test: Protein cereblon/Tyrosine-protein kinase BTK (Homo sapiens, UniProt Q06187+Q96SW2)
EC50, nM: 7.07

====

protocol: MRT (0 to infinity) in Sprague-Dawley rat at 2 mg/kg, iv measured after 48 hrs by UPLC analysis
Format: ADME, organism-based
experimental_context: in vivo

compound: Nc1ncnc2c1c(-c1ccc(Oc3ccccc3)cc1)nn2C1CCN(C(=O)CN2CCN(CC3CN(c4ccc5c(c4)C(=O)N(C4CCC(=O)NC4=O)C5=O)C3)CC2)CC1 (stereo unspecified)
MRT inf [h]: 1.37

====

target_under_test: Protein cereblon/Tyrosine-protein kinase BTK (Homo sapiens, UniProt Q06187+Q96SW2)
protocol: PROTAC activity at CRBN/BTK in human Ramos cells assessed as induction of BTK degradation incubated for 24 hrs by Western blot analysis
Format: cell-based

compound: Nc1ncnc2c1c(-c1ccc(Oc3ccccc3)cc1)nn2C1CCN(Cc2ccc(C#CC3CCN(c4cccc5c4C(=O)N(C4CCC(=O)NC4=O)C5=O)CC3)nc2)CC1 (stereo not drawn)
EC50, nM: 46.1
--
compound: Nc1ncnc2c1c(-c1ccc(Oc3ccccc3)cc1)nn2C1CCN(C(=O)c2ccc(N3CCN(c4ccc5c(c4)C(=O)N(C4CCC(=O)NC4=O)C5=O)CC3)nc2)CC1 (stereo not drawn)
EC50, nM: 26.9
--
compound: Nc1ncnc2c1c(-c1ccc(Oc3ccccc3)cc1)nn2C1CCN(C(=O)CN2CCN(CC3CN(c4cccc5c4C(=O)N(C4CCC(=O)NC4=O)C5=O)C3)CC2)CC1 (stereo not drawn)
EC50, nM: 7.27
--
compound: Nc1ncnc2c1c(-c1ccc(Oc3ccccc3)cc1)nn2C1CCN(Cc2ccc(C#CC3CCN(c4ccc5c(c4)C(=O)N(C4CCC(=O)NC4=O)C5=O)CC3)nc2)CC1 (stereo not drawn)
EC50, nM: 51.1
--
compound: Nc1ncnc2c1c(-c1ccc(Oc3ccccc3)cc1)nn2C1CCN(C(=O)CN2CCN(CC3CCN(c4ccc5c(c4)C(=O)N(C4CCC(=O)NC4=O)C5=O)CC3)CC2)CC1 (stereo not drawn)
EC50, nM: 6.11
--
compound: Nc1ncnc2c1c(-c1ccc(Oc3ccccc3)cc1)nn2C1CCN(C(=O)CN2CCN(CC3CCN(c4cccc5c4C(=O)N(C4CCC(=O)NC4=O)C5=O)CC3)CC2)CC1 (stereo not drawn)
EC50, nM: 9.37
--
compound: Nc1ncnc2c1c(-c1ccc(Oc3ccccc3)cc1)nn2C1CCN(C(=O)CN2CCN(CC3CN(c4ccc5c(c4)C(=O)N(C4CCC(=O)NC4=O)C5=O)C3)CC2)CC1 (stereo not drawn)
EC50, nM: 3.18
--
compound: Nc1ncnc2c1c(-c1ccc(Oc3ccccc3)cc1)nn2C1CCN(CCOCCOCC(=O)Nc2ccc3c(c2)C(=O)N(C2CCC(=O)NC2=O)C3=O)CC1 (stereo not drawn)
EC50, nM: 63.3

====

protocol: Oral bioavailability in Sprague-Dawley rat at 20 mg/kg by UPLC analysis
Format: ADME, organism-based
experimental_context: in vivo
value_type: bioavailability (%)

compound: Nc1ncnc2c1c(-c1ccc(Oc3ccccc3)cc1)nn2C1CCN(C(=O)CN2CCN(CC3CN(c4ccc5c(c4)C(=O)N(C4CCC(=O)NC4=O)C5=O)C3)CC2)CC1 (stereo unspecified)
unit_info: %
result_number: 0.25
